Source of measurements: patent US20250382363A1

Listing: No of serum samples >30% inhibition (30% CCP) without SCP (serum samples) of selected binders
- Target System: pre-existing anti-drug antibodies (ADA) present in human sera
- Method Notes: pre-existing ADA ELISA, scFv coated, human sera unspiked vs spiked
// return just the number, without any unit appended

binder="PRO3342 (scFv 37-20-B03-sc09.1_(T101K, T146D)) (scFv, PRO2230 variant; VH substitutions, AHo numbering; also called PRO2230 T101K-T146D) scFv: DIQMTQSPASLSASVGDRVTITCQASQSIGTYLAWYQQKPGKPPKLLIYRAFILASGVPSRFSGSGSGTDFTLTISSLQPEDFATYYCQSNFYSDSTTIGPNAFGTGTKVTVLGGGGGSGGGGSGGGGSGGGGSEVQLVESGGGLVQPGGSLRLSCAASGFSFNSDYWIYWVRQAPGKGLEWIASIYGGSSGNTQYASWAQGRFTISRDNSKNTVYLQMNSLRAEDKAVYFCARGYVDYGGATDLWGQGTLVDVSS" result_number=1
binder="PRO1922 (scFv 54-21-H03-sc01) (scFv, also called PRO1922 wt; a-MSLN wt) scFv: DIQMTQSPSSLSASVGDRVTITCQASESIYSSLAWYQQKPGKAPKLLIYLASTLASGVPSRFSGSGSGTDFTLTISSLQPEDFATYYCQSTDYTTSTHRNSFGTGTKVTVLGGGGGSGGGGSGGGGSGGGGSEVQLVESGGGLVQPGGSLRLSCAASGFSFSTTYYMCWVRQAPGKGLEWIGCTNTASSVRTYYATWAKGRFTISRDNSKNTVYLQMNSLRAEDTAVYYCARDMGFADYALNLWGQGTLVTVSS" result_number=16
binder="PRO2992 (scFv 54-21-H03-sc01_(T146A)) (scFv, PRO1922 variant; VH substitution, AHo numbering; also called PRO1922 T146A) scFv: DIQMTQSPSSLSASVGDRVTITCQASESIYSSLAWYQQKPGKAPKLLIYLASTLASGVPSRFSGSGSGTDFTLTISSLQPEDFATYYCQSTDYTTSTHRNSFGTGTKVTVLGGGGGSGGGGSGGGGSGGGGSEVQLVESGGGLVQPGGSLRLSCAASGFSFSTTYYMCWVRQAPGKGLEWIGCTNTASSVRTYYATWAKGRFTISRDNSKNTVYLQMNSLRAEDTAVYYCARDMGFADYALNLWGQGTLVAVSS" result_number=4
binder="PRO2933 (scFv 37-20-B03-sc09.1_(L144K, T146E, S148K)) (scFv, PRO2230 variant; VH substitutions, AHo numbering; also called PRO2230 L144K-T146E-S148K) scFv: DIQMTQSPASLSASVGDRVTITCQASQSIGTYLAWYQQKPGKPPKLLIYRAFILASGVPSRFSGSGSGTDFTLTISSLQPEDFATYYCQSNFYSDSTTIGPNAFGTGTKVTVLGGGGGSGGGGSGGGGSGGGGSEVQLVESGGGLVQPGGSLRLSCAASGFSFNSDYWIYWVRQAPGKGLEWIASIYGGSSGNTQYASWAQGRFTISRDNSKNTVYLQMNSLRAEDTAVYFCARGYVDYGGATDLWGQGTKVEVKS" result_number=0
binder="PRO2914 (scFv 37-20-B03-sc09.1_(T101S, L144A, T146Q)) (scFv, PRO2230 variant; VH substitutions, AHo numbering; also called PRO2230 T101S-L144A-T146Q) scFv: DIQMTQSPASLSASVGDRVTITCQASQSIGTYLAWYQQKPGKPPKLLIYRAFILASGVPSRFSGSGSGTDFTLTISSLQPEDFATYYCQSNFYSDSTTIGPNAFGTGTKVTVLGGGGGSGGGGSGGGGSGGGGSEVQLVESGGGLVQPGGSLRLSCAASGFSFNSDYWIYWVRQAPGKGLEWIASIYGGSSGNTQYASWAQGRFTISRDNSKNTVYLQMNSLRAEDSAVYFCARGYVDYGGATDLWGQGTAVQVSS" result_number=5
binder="PRO3326 (scFv 54-21-H03-sc01_(T101Q, T146Q)) (scFv, PRO1922 variant; VH substitutions, AHo numbering; also called PRO1922 T101Q-T146Q) scFv: DIQMTQSPSSLSASVGDRVTITCQASESIYSSLAWYQQKPGKAPKLLIYLASTLASGVPSRFSGSGSGTDFTLTISSLQPEDFATYYCQSTDYTTSTHRNSFGTGTKVTVLGGGGGSGGGGSGGGGSGGGGSEVQLVESGGGLVQPGGSLRLSCAASGFSFSTTYYMCWVRQAPGKGLEWIGCTNTASSVRTYYATWAKGRFTISRDNSKNTVYLQMNSLRAEDQAVYYCARDMGFADYALNLWGQGTLVQVSS" result_number=0
binder="PRO2984 (scFv 37-20-B03-sc09.1_(L12S, V103T, L144T)) (scFv, VH substitutions, AHo numbering; also called PRO2230-L12S-V103T-L144T) scFv: DIQMTQSPASLSASVGDRVTITCQASQSIGTYLAWYQQKPGKPPKLLIYRAFILASGVPSRFSGSGSGTDFTLTISSLQPEDFATYYCQSNFYSDSTTIGPNAFGTGTKVTVLGGGGGSGGGGSGGGGSGGGGSEVQLVESGGGSVQPGGSLRLSCAASGFSFNSDYWIYWVRQAPGKGLEWIASIYGGSSGNTQYASWAQGRFTISRDNSKNTVYLQMNSLRAEDTATYFCARGYVDYGGATDLWGQGTTVTVSS" result_number=5
binder="PRO2943 (scFv 54-21-H03-sc01_(T146E)) (scFv, PRO1922 variant; VH substitution, AHo numbering; also called PRO1922 T146E) scFv: DIQMTQSPSSLSASVGDRVTITCQASESIYSSLAWYQQKPGKAPKLLIYLASTLASGVPSRFSGSGSGTDFTLTISSLQPEDFATYYCQSTDYTTSTHRNSFGTGTKVTVLGGGGGSGGGGSGGGGSGGGGSEVQLVESGGGLVQPGGSLRLSCAASGFSFSTTYYMCWVRQAPGKGLEWIGCTNTASSVRTYYATWAKGRFTISRDNSKNTVYLQMNSLRAEDTAVYYCARDMGFADYALNLWGQGTLVEVSS" result_number=4

Given PRO3338 (scFv 37-20-B03-sc09.1_(T101K, T146Q)) (scFv, PRO2230 variant; VH substitutions, AHo numbering; also called PRO2230 T101K-T146Q) scFv: DIQMTQSPASLSASVGDRVTITCQASQSIGTYLAWYQQKPGKPPKLLIYRAFILASGVPSRFSGSGSGTDFTLTISSLQPEDFATYYCQSNFYSDSTTIGPNAFGTGTKVTVLGGGGGSGGGGSGGGGSGGGGSEVQLVESGGGLVQPGGSLRLSCAASGFSFNSDYWIYWVRQAPGKGLEWIASIYGGSSGNTQYASWAQGRFTISRDNSKNTVYLQMNSLRAEDKAVYFCARGYVDYGGATDLWGQGTLVQVSS , state its recorded No of serum samples >30% inhibition (30% CCP) without SCP (serum samples).
0
